Here the recorded Percent Effect is given for each entry.
TARGET_OR_TEST_SYSTEM: Aspartate--tRNA(Asp/Asn) ligase (Mycobacterium tuberculosis (strain ATCC 25618 / H37Rv)) (UniProt P9WFW3); also: in the data most compounds retested in dose-response had high values
Sequence (whole entry): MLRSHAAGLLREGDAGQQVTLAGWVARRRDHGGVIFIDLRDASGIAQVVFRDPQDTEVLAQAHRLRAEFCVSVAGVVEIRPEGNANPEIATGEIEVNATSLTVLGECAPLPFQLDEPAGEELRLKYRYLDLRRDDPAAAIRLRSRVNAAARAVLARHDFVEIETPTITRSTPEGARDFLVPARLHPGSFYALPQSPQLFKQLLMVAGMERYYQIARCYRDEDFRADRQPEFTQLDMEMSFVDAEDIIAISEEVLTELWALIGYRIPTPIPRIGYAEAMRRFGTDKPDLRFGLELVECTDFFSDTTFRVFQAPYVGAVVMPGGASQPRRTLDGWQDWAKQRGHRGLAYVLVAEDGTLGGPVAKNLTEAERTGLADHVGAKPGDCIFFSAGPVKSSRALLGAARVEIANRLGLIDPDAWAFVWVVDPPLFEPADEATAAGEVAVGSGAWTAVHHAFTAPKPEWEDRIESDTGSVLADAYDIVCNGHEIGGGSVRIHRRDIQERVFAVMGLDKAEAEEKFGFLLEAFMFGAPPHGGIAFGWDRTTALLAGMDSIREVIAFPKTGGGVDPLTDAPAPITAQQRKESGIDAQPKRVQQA
ASSAY_DETAILS: Assay for Asp RNA synthetase-1 from Mycobacterium tuberculosis
Assay type: functional
Parameters: scale not given: direction of the effect not stated beside the values
CONDITION_SET: 30 µM
The figure you give is taken to be in %; do not add the unit.

Worked set:
* c1cnn(CC2CN(Cc3ccc(-n4ccnc4)cc3)CCO2)c1 (configuration not stated) | -1.11
* Cc1nc(C)n(CC2CCCN2Cc2nc(-c3cccs3)no2)n1 (configuration not stated) | -2.77
* CC(NC(=O)N1CCCN(Cc2cccs2)CC1)c1cccnc1 (configuration not stated) | -7.21
* Cc1nn(C)c2c(N3CCN(C(=O)C4CCC4)CC3)ncnc12 | -3.19
* CCCn1nc2c(cc1=O)CN(CC(=O)Nc1ccncc1)CC2 | 2.52
* O=C1COC2(CCN(CC3CC3)CC2)CN1c1ccccc1 | -0.547
* Cn1ccc(C(=O)N2CCN(c3ncccn3)CC2)cc1=O | 1.62
* O=C(NCC1CCOC1)c1cc(-c2cccc(Cl)c2)on1 (configuration not stated) | 1.64

[in] Name the reported Percent Effect value associated with the compound O=C(NCCNc1ncccn1)N1CCCC(C(F)(F)F)C1 (configuration not stated)
[out] 4.41

----------
Here the recorded Percent Effect is given for each entry.
TARGET_OR_TEST_SYSTEM: Shiga toxin 2 (Escherichia coli O157:H7) (UniProt P09385+P09386)
ASSAY_DETAILS: E. coli 0.157:H7 Shiga Toxin SOP - stx2 screening assay
Assay type: functional
Set-up: scale not given: direction of the effect not stated beside the values
CONDITION_SET: 30 µM
The figure you give is taken to be in %; do not add the unit.

[in] Name the reported Percent Effect value associated with the compound O=C1CC2(CCCCC2)CC(=O)N1CC(O)COCc1ccc(Cl)cc1 (stereo not drawn)
[out] 11

----------
Here the recorded Percent Effect is given for each entry.
TARGET_OR_TEST_SYSTEM: Aspartate--tRNA(Asp/Asn) ligase (Mycobacterium tuberculosis (strain ATCC 25618 / H37Rv)); also: in the data most compounds retested in dose-response had high values
ASSAY_DETAILS: Assay for Asp RNA synthetase-1 from Mycobacterium tuberculosis
Type: functional
Parameters: scale not given: direction of the effect not stated beside the values
CONDITION_SET: 30 µM
The figure you give is taken to be in %; do not add the unit.

Worked set:
- Cc1cnc(N2CCCC3(CCCN(C)C3)C2)nc1 (stereo not drawn): -0.912
- O=C(CCc1cc2n(n1)CCCN(C(=O)c1cccnc1)C2)NC1CC1: -2.01
- O=C(C1=CCCC1)N1CCC[C@]2(C[C@@H](Oc3ncccc3F)CO2)C1: 0.0684
- CCN(Cc1ccc2c(c1)OCCO2)S(=O)(=O)N(C)C(C)C: -0.607
- CCCSCC(=O)Nc1ncn(CC(=O)NCc2ccccc2)n1: 1.55
- CCc1noc(C)c1C(=O)N(C)Cc1ncc(C)c(OC)c1C: -1.73
- O=C(N1CCCC1)N1Cc2nccn2CC(CN2CCCC2)C1 (stereo not drawn): -5.76
- CCCc1cc(NC2CCc3ncnn3C2)n2ncnc2n1 (stereo not drawn): -2.01

[in] Name the reported Percent Effect value associated with the compound CCc1nnc2n1CCN(C(=O)c1cc3cc(F)ccc3[nH]1)C2
[out] -1.91

[in] Name the reported Percent Effect value associated with the compound Cc1cccc(CN2CCc3c(nc(N4CCCCC4C)[nH]c3=O)C2)n1 (stereo not drawn)
[out] -1.15

[in] Name the reported Percent Effect value associated with the compound Cc1nn(C)c(Cl)c1C1CCCN1c1ncnc2sccc12 (stereo not drawn)
[out] -2.03

[in] Name the reported Percent Effect value associated with the compound Cc1cc(N2CCC(CC(N)=O)CC2)nc(-c2ccncc2)n1
[out] 6.11

[in] Name the reported Percent Effect value associated with the compound O=C(Nc1cccc(CNCc2cccs2)c1)C1CCCC1
[out] 1.74

[in] Name the reported Percent Effect value associated with the compound Cc1nc(C)n(CC2CCCN2Cc2cc(C)on2)n1 (stereo not drawn)
[out] 8.96

[in] Name the reported Percent Effect value associated with the compound c1nc(COCC2CC2)c2n1CCCN(CC1CC1)C2
[out] -0.611

[in] Name the reported Percent Effect value associated with the compound O=C(Cc1ccccn1)N1CCN(CC2CC2)c2ncccc2C1
[out] 5.6

Origin of measurements: ChEMBL document CHEMBL3988442
